# Target Of Assay: association of L HBsAg with HBcAg (Hepatitis B virus genotype D subtype adw, UniProt P03147)
# Construct: Purification of Particles Comprising Full-Length or Truncated HBcAg; made in house; host or cells: HBcAg: E. coli RB 791; L HBsAg: in vitro translation in rabbit reticulocyte lysate with canine pancreatic microsomal membranes
# Sequence (P03147 whole entry, the tested form may be a part): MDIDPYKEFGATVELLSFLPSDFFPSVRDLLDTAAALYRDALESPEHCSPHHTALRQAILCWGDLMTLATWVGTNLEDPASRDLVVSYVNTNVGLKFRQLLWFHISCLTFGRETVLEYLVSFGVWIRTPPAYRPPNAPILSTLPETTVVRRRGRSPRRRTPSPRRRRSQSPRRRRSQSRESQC
# Protocol Notes: biochemical
# Format: binding
# Condition Label: IC50: concentration of peptide required to inhibit the binding of L HBsAg to HBcAg at a half maximal level, free peptide; HBcAg-coated wells
No end group written: not given here.
Hi there, I'd appreciate the recorded IC50 for every entry that follows.

IC50 for Ac-SLLGRMKG is 26.2 µM

LDPAFR [LDPAFR, reference compound] has a reported IC50 of ~360 µM

The substance identified as HRSLLGRMKGA registered its IC50 at 0.5 µM

Looking up SLLGRMKG , I see its IC50 listed as 6.4 µM

Entry SLLGRMK [SLLGRMK] ; IC50 = 40.7 µM

Memo: LLGRMKG [LLGRMKG] , reported IC50: 46.2 µM

Lookup result for LGRMKG [LGRMKG] ; measured IC50: 980 µM

For SLLGRMKGA the substance record lists IC50 as 2.4 µM

---

# Target Of Assay: association of L HBsAg with HBcAg (Hepatitis B virus genotype D subtype adw, UniProt P03147)
# Construct: Purification of Particles Comprising Full-Length or Truncated HBcAg; L HBsAg: in vitro translation in rabbit reticulocyte lysate with canine pancreatic microsomal membranes
# Protocol Notes: biochemical
# Condition Label: IC50: concentration of peptide required to inhibit the binding of L HBsAg to HBcAg at a half maximal level, free peptide; HBcAg-coated wells
pIC50: −log10 of the molar value. Non-standard residues stand in square brackets, D forms with d. Residues, ends and D or L forms follow the SMILES beside them. βAla = NCCC(=O)O
If the reported pIC50 equals or exceeds 6, assign true (1). If not, assign false (0).

Ask: Form field: pIC50 at least 6? Entry: CSCC[C@H](NC(=O)[C@H](CCCNC(=N)N)NC(=O)CNC(=O)[C@H](CC(C)C)NC(=O)[C@H](CC(C)C)NC(=O)[C@H](CO)NC(=O)[C@@H](N)CCCNC(=N)N)C(=O)N[C@@H](CCCCN)C(=O)NCC(=O)N[C@@H](C)C(=O)NCCC(=O)N[C@@H](CS)C(=O)O
Reply: true (1)

Ask: Hello, I need to know if CSCC[C@H](NC(=O)[C@H](CCCNC(=N)N)NC(=O)CNC(=O)[C@H](CC(C)C)NC(=O)[C@H](CC(C)C)NC(=O)[C@H](CO)NC(=O)[C@@H](N)CCCNC(=N)N)C(=O)N[C@@H](CCCCN)C(=O)NCC(=O)N[C@@H](C)C(=O)O has measured pIC50 not below 6. Thanks!
Reply: true (1)

Ask: hey, is pIC50 for this one >= 6? CSCC[C@H](NC(=O)[C@H](CCCNC(=N)N)NC(=O)CNC(=O)[C@H](CC(C)C)NC(=O)[C@H](CC(C)C)NC(=O)[C@H](CO)NC(=O)CNC(=O)[C@H](CC(=O)O)NC(=O)[C@H](C)N)C(=O)N[C@@H](CCCCN)C(=O)NCC(=O)N[C@@H](C)C(=O)N[C@@H](C)C(=O)NCC(=O)O
Reply: false (0)

Ask: Hello, I need to know if CSCC[C@H](NC(=O)[C@H](CCCNC(=N)N)NC(=O)CNC(=O)[C@H](CC(C)C)NC(=O)[C@H](CC(C)C)NC(=O)[C@@H](N)CO)C(=O)N[C@@H](CCCCN)C(=O)NCC(=O)NCCC(=O)N[C@@H](CS)C(=O)O (H-SLLGRMKG[βAla]C-OH) has measured pIC50 not below 6. Thanks!
Reply: false (0)

Ask: Hi, just wondering whether CSCC[C@H](NC(=O)[C@H](CCCNC(=N)N)NC(=O)CNC(=O)[C@H](CC(C)C)NC(=O)[C@H](CC(C)C)NC(=O)[C@H](CO)NC(=O)[C@H](CCCNC(=N)N)NC(=O)[C@H](Cc1c[nH]cn1)NC(=O)[C@@H](N)CCSC)C(=O)N[C@@H](CCCCN)C(=O)NCC(=O)N[C@@H](C)C(=O)NCC(=O)NCCC(=O)NCC(=O)N[C@@H](CS)C(=O)O shows pIC50 of 6 or higher.
Reply: false (0)

Ask: Would you say CSCC[C@H](NC(=O)[C@H](CCCNC(=N)N)NC(=O)CNC(=O)[C@H](CC(C)C)NC(=O)[C@H](CC(C)C)NC(=O)[C@H](CO)NC(=O)CNC(=O)[C@@H](N)CC(=O)O)C(=O)N[C@@H](CCCCN)C(=O)NCC(=O)N[C@@H](C)C(=O)N[C@@H](C)C(=O)O shows pIC50 at minimum 6?
Reply: false (0)
